Biological target: T1, Human PTGFRN-ECD (extracellular domain; amino-acid 26 to amino-acid Y at 832), His-tag protein (human, UniProt Q9P2B2 26-832)
T1 construct: range 26-832; Expressed in Hek-293 cells, purified on a nickel column; also called recombinant PTGFRN; not shown: His-tag
T1 sequence (looked up): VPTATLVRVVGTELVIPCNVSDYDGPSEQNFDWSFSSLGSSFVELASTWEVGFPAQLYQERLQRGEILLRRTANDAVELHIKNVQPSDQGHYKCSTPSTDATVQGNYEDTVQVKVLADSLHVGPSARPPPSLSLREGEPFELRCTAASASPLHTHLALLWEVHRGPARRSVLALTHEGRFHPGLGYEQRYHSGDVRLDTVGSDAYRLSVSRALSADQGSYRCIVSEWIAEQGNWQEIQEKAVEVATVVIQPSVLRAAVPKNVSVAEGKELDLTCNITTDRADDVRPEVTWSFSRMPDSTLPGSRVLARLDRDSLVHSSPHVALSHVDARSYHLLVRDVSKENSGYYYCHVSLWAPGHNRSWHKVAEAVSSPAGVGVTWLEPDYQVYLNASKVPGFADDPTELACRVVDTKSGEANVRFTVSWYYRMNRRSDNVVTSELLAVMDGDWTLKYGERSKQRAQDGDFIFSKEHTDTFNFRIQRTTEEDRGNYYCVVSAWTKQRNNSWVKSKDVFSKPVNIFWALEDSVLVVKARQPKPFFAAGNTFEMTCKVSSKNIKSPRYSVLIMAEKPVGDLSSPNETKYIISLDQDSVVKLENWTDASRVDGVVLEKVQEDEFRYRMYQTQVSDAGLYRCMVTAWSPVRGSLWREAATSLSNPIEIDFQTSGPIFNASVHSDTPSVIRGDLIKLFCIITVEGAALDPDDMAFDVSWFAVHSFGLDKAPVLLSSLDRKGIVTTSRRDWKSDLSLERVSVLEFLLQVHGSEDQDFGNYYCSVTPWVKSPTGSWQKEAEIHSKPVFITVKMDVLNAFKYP
Assay: BLI, Octet Red96, mAb on AMC sensor, PTGFRN-ECD 100 nM as analyte
MEASUREMENT LABEL: Kd

// known answers, use as guide
1. 33B7 (antibody, V domains shown, Murine hybridoma monoclonal IgG (ATCC PTA-124281); also called AG02; AGO2) VH: DVQLQESGPGLVKPSQSLSLTCSVTGCSITSGYYWNWIRQFPGNKLEWMGYISHDGNNNYSPSLKNRISITRDTSKNQFFLKLNSVTTEDTATYYCARGFYYYGYFGYWGQGTTLTVSS VL: DIVMSQSPSSLAVSVGEKVTMSCKSSQSLLYSTNQKNYLAWYQQKPGQSPKPLIYWASTRESGVPDRFTGSGSGTDFTLTISSVKAEDLAVYYCQQYYSYRTFGGGTKLEIKR	3.09 nM
2. 10D9 (antibody, V domains shown, Mouse hybridoma mAb) VH: DVQLQESGPGLVKPSQSLSLTCSVTGCSITSGYDWNWIRQFPGNKLEWMGYINYDGNSNYIPSLKNRVSITRDTSKNQFFLKLNSVTTEDTATYYCARSDGYYWYFDVWGTGTTVTVSS VL: DIKMTQSPSSMYASLGERVTITCKASQDIKSYLSWYQQKPWKSPKTLIYYATSLADGVPSRFSASGSGQDYSLTISSLESDDTATYYCLQHAERPLTFGAGTKLELK	< 0.001 nM

Next:
So what does the record say about Kd for 2B12 (antibody, V domains shown, Mouse hybridoma mAb) VH: QVQLQQPGAELVKPGASVKMSCKASGYTFTSYWITWVKQGPGQGLEWIGDIYPGSGNTNYNEKFKSKATLTVDTSSSTAYMQLSSLTSEDSAVYYCARFFILTSYYFDYWGQGTTLTVSS VL: GIVMTQSQKFMSTTVGDRVSITCKASQNVGTAVAWFQQKPGQSPKLLIYLASNRYTGVPDRFTGSGSGTDFTLTISNMQSEDLADYFCQQYSNYPLTFGAGTKLELK ?
< 0.001 nM
